Here the recorded chromatographic logP is given for each entry.
assay: logP determination by HPLC on reversed-phase columns (C 18), EEC Directive 79/831 Annex V.A8; type: physicochemical; details: reversed-phase C18 HPLC column; [b] LC-MS in the neutral range, pH 7.8, 0.001 molar aqueous ammonium hydrogencarbonate and acetonitrile

| molecule | chromatographic logP |
| --- | --- |
| C#CCOc1cc(C)c(C)cc1C1(C)CC(c2csc(C3CCN(C(=O)Cn4nc(C(F)F)cc4C(F)F)CC3)n2)=NO1 (stereo not drawn) | 4.04 |
| C#CCOc1ccc(F)c(C2CC(c3csc(C4CCN(C(=O)Cn5nc(C(F)F)cc5C(F)F)CC4)n3)=NO2)c1F (stereo not drawn) | 3.18 |
| C=CCOc1ccc(F)c(C2CC(c3csc(C4CCN(C(=O)Cn5nc(C(F)F)cc5C(F)F)CC4)n3)=NO2)c1F (stereo not drawn) | 3.51 |

###

tested on: Plasmopara viticola; assay: Plasmopara test (grapevine) / protective; assay type: in vivo; conditions: young grapevine plants, protective spray, active ingredient concentration 10 ppm, evaluation 6 days after inoculation
// reported Eff. % for each item listed
recorded endpoint: Eff. % (%)

| compound | reading unit | result |
| --- | --- | --- |
| C=CCOc1cc(Cl)cc(Cl)c1C1CC(c2csc(C3CCN(C(=O)Cn4nc(C(F)F)cc4C(F)F)CC3)n2)=NO1 (racemic) | % | 96 |
| C#CCOc1ccc(F)c(F)c1C1CC(c2csc(C3CCN(C(=O)Cn4nc(C(F)F)cc4C(F)F)CC3)n2)=NO1 (racemic) | % | 100 |
| C#CCOc1cc(F)c(C2CC(c3csc(C4CCN(C(=O)Cn5nc(C(F)F)cc5C(F)F)CC4)n3)=NO2)c(F)c1 (racemic) | % | 100 |
| C#CCOc1cc(F)cc(F)c1C1CC(c2csc(C3CCN(C(=O)Cn4nc(C(F)F)cc4C(F)F)CC3)n2)=NO1 (racemic) | % | 100 |
| C#CCOc1cc(Cl)cc(Cl)c1C1CC(c2csc(C3CCN(C(=O)Cn4nc(C(F)F)cc4C(F)F)CC3)n2)=NO1 (racemic) | % | 100 |
| CS(=O)(=O)Nc1cc(F)c(C2CC(c3csc(C4CCN(C(=O)Cn5nc(C(F)F)cc5C(F)F)CC4)n3)=NO2)c(F)c1 (stereo not drawn) | % | 96 |

###

assay: logP determination by HPLC on reversed-phase columns (C 18), EEC Directive 79/831 Annex V.A8; assay type: physicochemical; settings: [b] LC-MS in the neutral range, pH 7.8, 0.001 molar aqueous ammonium hydrogencarbonate and acetonitrile
Form field: LogP (one value per entry).
recorded endpoint: LogP

| compound | recorded endpoint | result |
| --- | --- | --- |
| C#CCOc1cc(Cl)cc(Cl)c1C1CC(c2csc(C3CCN(C(=O)Cn4nc(C(F)F)cc4C(F)F)CC3)n2)=NO1 (racemic) [Example I-21] | LogP | 3.85 |
| C#CCOc1c(F)cc(F)cc1C1CC(c2csc(C3CCN(C(=O)Cn4nc(C(F)F)cc4C(F)F)CC3)n2)=NO1 (racemic) [Example I-10] | LogP | 3.51 |
| O=C(Cn1nc(C(F)F)cc1C(F)F)N1CCC(c2nc(C3=NOC(c4c(F)cc(F)cc4OCC4CC4)C3)cs2)CC1 (racemic) [Example I-15] | LogP | 3.76 |
| C#CCOc1ccc(F)c(F)c1C1CC(c2csc(C3CCN(C(=O)Cn4nc(C(F)F)cc4C(F)F)CC3)n2)=NO1 (racemic) [Example I-8] | LogP | 3.27 |
| O=C(Cn1nc(C(F)F)cc1C(F)F)N1CCC(c2nc(C3=NOC(c4c(OC/C=C\Cl)ccc(F)c4F)C3)cs2)CC1 (racemic) [Example I-6] | LogP | 3.71 |
| C=C(Cl)COc1ccc(F)c(F)c1C1CC(c2csc(C3CCN(C(=O)Cn4nc(C(F)F)cc4C(F)F)CC3)n2)=NO1 (racemic) [Example I-7] | LogP | 3.69 |
| C=C(Cl)COc1cc(F)cc(F)c1C1CC(c2csc(C3CCN(C(=O)Cn4nc(C(F)F)cc4C(F)F)CC3)n2)=NO1 (racemic) [Example I-19] | LogP | 3.7 |
| O=C(Oc1cc(F)cc(F)c1C1CC(c2csc(C3CCN(C(=O)Cn4nc(C(F)F)cc4C(F)F)CC3)n2)=NO1)C1CC1 (racemic) [Example I-16] | LogP | 3.42 |
| C=CCOc1ccc(F)c(F)c1C1CC(c2csc(C3CCN(C(=O)Cn4nc(C(F)F)cc4C(F)F)CC3)n2)=NO1 (racemic) [Example I-17] | LogP | 3.56 |
| C#CCOc1cc(F)c(C2CC(c3csc(C4CCN(C(=O)Cn5nc(C(F)F)cc5C(F)F)CC4)n3)=NO2)c(F)c1 (racemic) [Example I-3] | LogP | 3.26 |
| C=CCOc1cc(Cl)cc(Cl)c1C1CC(c2csc(C3CCN(C(=O)Cn4nc(C(F)F)cc4C(F)F)CC3)n2)=NO1 (racemic) [Example I-18] | LogP | 4.2 |
| C#CCOc1c(F)ccc(F)c1C1CC(c2csc(C3CCN(C(=O)Cn4nc(C(F)F)cc4C(F)F)CC3)n2)=NO1 (racemic) [Example I-12] | LogP | 3.3 |
| C=CCOc1cc(F)cc(F)c1C1CC(c2csc(C3CCN(C(=O)Cn4nc(C(F)F)cc4C(F)F)CC3)n2)=NO1 (racemic) [Example I-20] | LogP | 3.58 |
| O=Cc1cc(F)c(C2CC(c3csc(C4CCN(C(=O)Cn5nc(C(F)F)cc5C(F)F)CC4)n3)=NO2)c(F)c1 (racemic) [Example I-14] | LogP | 2.87 |

###

Collected LogP values appear next to each entry.
test: logP determination by HPLC on reversed-phase columns (C 18), EEC Directive 79/831 Annex V.A8; type: physicochemical; conditions: [a] LC-MS in the acidic range, pH 2.7, 0.1% aqueous formic acid and acetonitrile

| molecule | LogP |
| --- | --- |
| C#CCOc1c(F)ccc(F)c1C1CC(c2csc(C3CCN(C(=O)Cn4nc(C(F)F)cc4C(F)F)CC3)n2)=NO1 (racemic) | 3.31 |
| O=Cc1cc(F)c(C2CC(c3csc(C4CCN(C(=O)Cn5nc(C(F)F)cc5C(F)F)CC4)n3)=NO2)c(F)c1 (racemic) | 2.93 |
| O=C(Oc1cc(F)c(C2CC(c3csc(C4CCN(C(=O)Cn5nc(C(F)F)cc5C(F)F)CC4)n3)=NO2)c(F)c1)C1CC1 (racemic) | 3.53^[a] |
| C=C(Cl)COc1cc(F)cc(F)c1C1CC(c2csc(C3CCN(C(=O)Cn4nc(C(F)F)cc4C(F)F)CC3)n2)=NO1 (racemic) | 3.79 |
| C#CCOc1c(F)cc(F)cc1C1CC(c2csc(C3CCN(C(=O)Cn4nc(C(F)F)cc4C(F)F)CC3)n2)=NO1 (racemic) | 3.58 |
| C=CCOc1cc(Cl)cc(Cl)c1C1CC(c2csc(C3CCN(C(=O)Cn4nc(C(F)F)cc4C(F)F)CC3)n2)=NO1 (racemic) | 4.29 |
| C#CCOc1ccc(F)c(F)c1C1CC(c2csc(C3CCN(C(=O)Cn4nc(C(F)F)cc4C(F)F)CC3)n2)=NO1 (racemic) | 3.3 |
| C=CCOc1cc(F)cc(F)c1C1CC(c2csc(C3CCN(C(=O)Cn4nc(C(F)F)cc4C(F)F)CC3)n2)=NO1 (racemic) | 3.67 |
| O=C(Oc1cc(F)cc(F)c1C1CC(c2csc(C3CCN(C(=O)Cn4nc(C(F)F)cc4C(F)F)CC3)n2)=NO1)C1CC1 (racemic) | 3.5 |
| C#CCOc1cc(F)cc(F)c1C1CC(c2csc(C3CCN(C(=O)Cn4nc(C(F)F)cc4C(F)F)CC3)n2)=NO1 (racemic) | 3.32^[a] |
| O=C(Cn1nc(C(F)F)cc1C(F)F)N1CCC(c2nc(C3=NOC(c4c(F)cc(F)cc4OCC4CC4)C3)cs2)CC1 (racemic) | 3.81 |
| C=CCOc1cc(F)c(C2CC(c3csc(C4CCN(C(=O)Cn5nc(C(F)F)cc5C(F)F)CC4)n3)=NO2)c(F)c1 (racemic) | 3.7^[a] |
| O=C(Cn1nc(C(F)F)cc1C(F)F)N1CCC(c2nc(C3=NOC(c4c(OC/C=C\Cl)ccc(F)c4F)C3)cs2)CC1 (racemic) | 3.79 |
| C=CCOc1ccc(F)c(F)c1C1CC(c2csc(C3CCN(C(=O)Cn4nc(C(F)F)cc4C(F)F)CC3)n2)=NO1 (racemic) | 3.53 |
| C#CCOc1cc(Cl)cc(Cl)c1C1CC(c2csc(C3CCN(C(=O)Cn4nc(C(F)F)cc4C(F)F)CC3)n2)=NO1 (racemic) | 3.94 |
| C=C(Cl)COc1ccc(F)c(F)c1C1CC(c2csc(C3CCN(C(=O)Cn4nc(C(F)F)cc4C(F)F)CC3)n2)=NO1 (racemic) | 3.68 |
| C#CCOc1cc(F)c(C2CC(c3csc(C4CCN(C(=O)Cn5nc(C(F)F)cc5C(F)F)CC4)n3)=NO2)c(F)c1 (racemic) | 3.3 |

meta.source: patent US10004232B2
